Source: patent US11034672B1

molecular target: HER2 YVMA (Homo sapiens, UniProt P04626, INS775YVMA); construct: expressed in transfected cells; host or cells: BaF3 (murine pro-B); assay: BaF3 cell proliferation assay, HER2 YVMA (Table B); type: cell-based; conditions: potency code, 3 days, CellTiterGlo, read-out: HER2 YVMA (Activity for Inhibiting HER2)
Sequence (P04626 with tags, fused parts or gaps INS775YVMA): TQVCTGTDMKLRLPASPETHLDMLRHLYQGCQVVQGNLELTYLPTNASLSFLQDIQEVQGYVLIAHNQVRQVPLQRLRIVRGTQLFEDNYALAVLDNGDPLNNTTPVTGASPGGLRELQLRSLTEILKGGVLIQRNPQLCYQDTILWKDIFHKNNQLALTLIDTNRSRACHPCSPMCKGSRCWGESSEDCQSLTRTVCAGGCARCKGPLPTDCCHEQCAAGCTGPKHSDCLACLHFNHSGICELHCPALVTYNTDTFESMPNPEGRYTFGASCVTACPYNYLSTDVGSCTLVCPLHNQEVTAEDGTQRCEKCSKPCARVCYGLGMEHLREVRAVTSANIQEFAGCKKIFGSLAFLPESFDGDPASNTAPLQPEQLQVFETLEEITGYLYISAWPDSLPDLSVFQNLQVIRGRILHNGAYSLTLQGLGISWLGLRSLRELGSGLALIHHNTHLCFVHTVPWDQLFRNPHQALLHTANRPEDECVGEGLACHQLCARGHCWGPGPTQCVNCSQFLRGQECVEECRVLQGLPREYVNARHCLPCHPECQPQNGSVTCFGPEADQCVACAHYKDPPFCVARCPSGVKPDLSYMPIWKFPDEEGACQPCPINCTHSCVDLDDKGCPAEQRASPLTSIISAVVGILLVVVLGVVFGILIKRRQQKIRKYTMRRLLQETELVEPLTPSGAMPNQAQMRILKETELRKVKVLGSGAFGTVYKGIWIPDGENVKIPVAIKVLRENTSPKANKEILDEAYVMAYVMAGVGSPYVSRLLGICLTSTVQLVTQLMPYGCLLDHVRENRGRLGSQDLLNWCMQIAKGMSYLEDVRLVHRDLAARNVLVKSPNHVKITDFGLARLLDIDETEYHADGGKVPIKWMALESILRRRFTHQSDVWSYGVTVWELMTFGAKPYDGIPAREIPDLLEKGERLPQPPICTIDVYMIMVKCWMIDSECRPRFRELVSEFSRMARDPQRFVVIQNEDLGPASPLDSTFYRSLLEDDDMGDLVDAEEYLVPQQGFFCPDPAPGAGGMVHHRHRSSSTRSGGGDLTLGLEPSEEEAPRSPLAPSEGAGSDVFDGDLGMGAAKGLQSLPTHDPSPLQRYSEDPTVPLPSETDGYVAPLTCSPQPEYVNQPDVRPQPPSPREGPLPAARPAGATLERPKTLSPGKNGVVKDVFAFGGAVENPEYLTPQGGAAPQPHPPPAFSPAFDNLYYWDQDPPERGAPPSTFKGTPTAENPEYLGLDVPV
pIC50: −log10 of the molar value.
Quantity: pIC50

Known pIC50 results, listed for orientation:
1. C=CC(=O)Nc1cc2c(Nc3ccc(OCc4ccccn4)c(Cl)c3)ncnc2cc1C#C[C@@H]1[C@H]2CN(C3COC3)C[C@@H]12 = 6.70 to 7.00
2. C=CC(=O)Nc1cc2c(Nc3ccc(OCc4ccccn4)c(Cl)c3)ncnc2cc1O[C@H]1CCCN(C)CC1 = 6.52 to 6.70
3. CC#CC(=O)Nc1cc2c(Nc3ccc(OCc4ccccn4)c(Cl)c3)ncnc2cc1C#CC(C)(C)N1CCN(C)CC1 = 7.00 to 7.30
4. C=CC(=O)Nc1cc2c(Nc3ccc(OCc4ccccn4)c(Cl)c3)ncnc2cc1OCC[C@H]1CCCN1C = 7.30 to 7.52

Now for a further compound.
Tell me the measured pIC50 of C=CC(=O)Nc1cc2c(Nc3ccc(OCc4ccccn4)c(Cl)c3)ncnc2cc1OCCN1CC(OC)C1 , please.
7.30 to 7.52

---

biological target: HER2 YVMA (Homo sapiens, UniProt P04626, INS775YVMA); construct: expressed in transfected cells; host or cells: BaF3 (murine pro-B); test: Activity for inhibiting HER2 (Table B), HER2 YVMA; format: cell-based; conditions: read-out: HER2 YVMA, potency code (IC50)
pIC50: −log10 of the molar value.
Property: pIC50; scope: individual compounds

1) CC#CC(=O)Nc1cc2c(Nc3cc(Cl)c(OCc4cccc(F)c4)cc3F)ncnc2cc1OCCCN1CC(OC)C1 [compound 136] = 6.70 to 7.00
2) C=CC(=O)Nc1cc2c(Nc3ccc(OCc4ccccn4)c(Cl)c3)ncnc2cc1OCCN1CC2(CCN2C)C1 [compound 115] = 7.00 to 7.30
3) C=CC(=O)Nc1cc2c(Nc3ccc(OCc4ccccn4)c(Cl)c3)ncnc2cc1OCCC1(N(C)C)CC1 [compound 102] = 7.00 to 7.30
4) C=CC(=O)Nc1cc2c(Nc3cc(Cl)c(OCc4ccccn4)cc3F)ncnc2cc1OCCN1CCOCC1 [compound 57] = 7.00 to 7.30
5) C=CC(=O)Nc1cc2c(Nc3ccc(OCc4cccc(OC(F)(F)F)n4)c(Cl)c3)ncnc2cc1OCCN1CCOCC1 [compound 24] = 6.30 to 6.52
6) C=CC(=O)Nc1cc2c(Nc3ccc(Oc4ccccc4)cc3)ncnc2cc1C#C[C@@H]1[C@H]2CN(C)C[C@@H]12 [compound 106] = 6.70 to 7.00
7) CC#CC(=O)Nc1cc2c(Nc3ccc(OCc4ccccn4)c(Cl)c3)ncnc2cc1OCCN1CCOCC1 [compound 5] = 8.00 to 8.30
8) C=CC(=O)Nc1cc2c(Nc3ccc(OCc4ccccn4)c(Cl)c3)ncnc2cc1OCCN1CCC1 [compound 33] = 6.70 to 7.00

Now for a further compound.
Tell me the measured pIC50 of C=CC(=O)Nc1cc2c(Nc3ccc(Oc4cccnc4)cc3)ncnc2cc1OCCN1CCOCC1 [compound 75] , please.
6.30 to 6.52

---

target: EGFR V3 (Homo sapiens, UniProt P00533, DELINS30-297G); construct: expressed in transfected cells; host or cells: BaF3 (murine pro-B), retroviral pMXs-IRES-Blasticidin; experiment: BaF3 cell proliferation assay, EGFR V3 (Table A); type: cell-based; conditions: potency code, 3 days, CellTiterGlo, read-out: EGFR V3 (Activity for Inhibiting EGFR)
Sequence (P00533 with tags, fused parts or gaps DELINS30-297G): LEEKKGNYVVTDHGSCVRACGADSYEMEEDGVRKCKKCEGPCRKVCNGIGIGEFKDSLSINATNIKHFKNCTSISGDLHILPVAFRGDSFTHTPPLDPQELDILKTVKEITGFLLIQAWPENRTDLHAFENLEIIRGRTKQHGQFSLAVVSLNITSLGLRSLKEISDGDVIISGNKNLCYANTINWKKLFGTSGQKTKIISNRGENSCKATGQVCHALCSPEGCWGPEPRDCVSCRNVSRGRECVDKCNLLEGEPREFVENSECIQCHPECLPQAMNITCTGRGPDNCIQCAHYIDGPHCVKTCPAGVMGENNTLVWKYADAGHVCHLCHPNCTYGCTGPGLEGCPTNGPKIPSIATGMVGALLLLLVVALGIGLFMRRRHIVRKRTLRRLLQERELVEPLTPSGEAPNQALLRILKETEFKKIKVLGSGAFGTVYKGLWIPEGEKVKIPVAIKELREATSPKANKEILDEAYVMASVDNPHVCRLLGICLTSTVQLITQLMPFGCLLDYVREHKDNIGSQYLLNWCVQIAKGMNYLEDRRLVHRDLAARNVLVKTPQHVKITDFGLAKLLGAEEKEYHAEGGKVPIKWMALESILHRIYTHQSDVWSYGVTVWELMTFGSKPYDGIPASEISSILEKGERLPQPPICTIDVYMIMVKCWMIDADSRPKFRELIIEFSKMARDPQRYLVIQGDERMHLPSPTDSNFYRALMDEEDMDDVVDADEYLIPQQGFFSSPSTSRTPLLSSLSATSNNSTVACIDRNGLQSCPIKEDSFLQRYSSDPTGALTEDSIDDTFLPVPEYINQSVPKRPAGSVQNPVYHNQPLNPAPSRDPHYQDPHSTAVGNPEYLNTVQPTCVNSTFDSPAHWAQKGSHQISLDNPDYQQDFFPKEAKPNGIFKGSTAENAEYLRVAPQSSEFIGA
pIC50: −log10 of the molar value.
Quantity: pIC50

Known pIC50 results, listed for orientation:
1. C=CC(=O)Nc1cc2c(Nc3ccc(OCc4ccccn4)c(Cl)c3)ncnc2cc1C#CC(C)(C)N1CCCC1 [compound 84] = 7.52 to 7.70
2. C=CC(=O)Nc1cc2c(Nc3ccc(OCc4ccccn4)c(Cl)c3)ncnc2cc1OCCN1CCCC1 [compound 28] = 7.70 to 8.00
3. C=CC(=O)Nc1cc2c(Nc3ccc(OCc4ccccn4)c(Cl)c3)ncnc2cc1N(C)CCN1CCOCC1 [compound 7] = 6.70 to 7.00
4. C=CC(=O)Nc1cc2c(Nc3ccc(OCc4ccccn4)c(Cl)c3)ncnc2cc1O[C@H]1CCN(C)C1 [compound 18] = 7.52 to 7.70
5. C=CC(=O)Nc1cc2c(Nc3ccc(OCc4ccccn4)c(Cl)c3)ncnc2cc1OCC1CCCN1C (stereo not shown) [compound 14] = 7.30 to 7.52
6. C=CC(=O)Nc1cc2c(Nc3ccc(Oc4ccccc4)c(C)c3)ncnc2cc1C#C[C@@H]1[C@H]2CN(C)C[C@@H]12 [compound 117] = 6.70 to 7.00

Tell me the measured pIC50 of CC#CC(=O)Nc1cc2c(Nc3cc(Cl)c(OCc4cccc(F)c4)cc3F)ncnc2cc1OCCN1CCN(C)CC1 [compound 146] , please.
7.00 to 7.30

Tell me the measured pIC50 of C=CC(=O)Nc1cc2c(Nc3ccc(OCc4ccccn4)c(Cl)c3)ncnc2cc1OCC12CCC(CC1)N2C [compound 122] , please.
7.00 to 7.30

Tell me the measured pIC50 of C=CC(=O)Nc1cc2c(Nc3ccc(OCc4ccccn4)c(Cl)c3)ncnc2cc1OCCN1CC2(CN(C)C2)C1 [compound 119] , please.
7.00 to 7.30

Tell me the measured pIC50 of C=CC(=O)Nc1cc2c(Nc3ccc(OCc4ccccn4)nc3)ncnc2cc1O[C@@H]1CCN(C)C1 [compound 72] , please.
6.30 to 6.52

Tell me the measured pIC50 of C=CC(=O)Nc1cc2c(Nc3cc(Cl)c(OCc4cccc(F)c4)cc3F)ncnc2cc1OCCN1CC2CCC(C1)O2 [compound 147] , please.
7.00 to 7.30

Tell me the measured pIC50 of C=CC(=O)Nc1cc2c(Nc3ccc(Oc4ccccc4)c(Cl)c3)ncnc2cc1O[C@@H]1CCN(C)C1 [compound 91] , please.
7.00 to 7.30

Tell me the measured pIC50 of C=CC(=O)Nc1cc2c(Nc3ccc(OCc4ccccn4)c(Cl)c3)ncnc2cc1OCCCN1CCN(C)CC1 [compound 69] , please.
7.70 to 8.00

Tell me the measured pIC50 of C=CC(=O)Nc1cc2c(Nc3ccc(OCc4cccnn4)c(Cl)c3)ncnc2cc1OCCCN1CC(OC)C1 [compound 177] , please.
7.30 to 7.52

Tell me the measured pIC50 of C=CC(=O)Nc1cc2c(Nc3ccc(OCc4ccccn4)c(Cl)c3)ncnc2cc1C#CC(C)(C)N1CCN(C)CC1 [compound 65] , please.
7.52 to 7.70

Tell me the measured pIC50 of C=C(F)C(=O)Nc1cc2c(Nc3ccc(OCc4ccccn4)c(Cl)c3)ncnc2cc1OCCN1CCOCC1 [compound 109] , please.
7.70 to 8.00

---

target: EGFR V3 (Homo sapiens, UniProt P00533, DELINS30-297G); construct: expressed in transfected cells; host or cells: BaF3 (murine pro-B), retroviral pMXs-IRES-Blasticidin; test: Activity for inhibiting EGFR (Table A), EGFR V3 (EGFR-Viii); format: cell-based; details: read-out: EGFR V3, potency code (IC50)
pIC50: −log10 of the molar value.
Quantity: pIC50

Known pIC50 results, listed for orientation:
1) C=CC(=O)Nc1cc2c(Nc3ccc(OCc4cccc(F)c4)c(Cl)c3)ncnc2cc1OCCN1CC(OC)C1 = 7.00 to 7.30
2) C=CC(=O)Nc1cc2c(Nc3cc(Cl)c(OCc4cccc(F)c4)cc3F)ncnc2cc1OCCN1CCOCC1 = 7.52 to 7.70

Tell me the measured pIC50 of C=CC(=O)Nc1cc2c(Nc3ccc(OCc4ccccn4)c(Cl)c3)ncnc2cc1OCCC1(N(C)C)CC1 , please.
7.30 to 7.52

Tell me the measured pIC50 of C=CC(=O)Nc1cc2c(Nc3ccc(OCc4cccc(F)n4)c(Cl)c3)ncnc2cc1OCCN1CC2CCC(C1)O2 , please.
7.00 to 7.30

---

target: EGFR V3 (Homo sapiens, UniProt P00533, DELINS30-297G); construct: expressed in transfected cells; host or cells: BaF3 (murine pro-B), retroviral pMXs-IRES-Blasticidin; assay: BaF3 cell proliferation assay, EGFR V3 (Table A); type: cell-based; settings: potency code, 3 days, CellTiterGlo, read-out: EGFR V3 (Activity for Inhibiting EGFR)
Quantity: IC50

1) C=CC(=O)Nc1cc2c(Nc3ccc(OCc4cccc(C)n4)c(Cl)c3)ncnc2cc1OCCN1CC2CCC(C1)O2 = 0.3 to 0.5 µM
2) C=CC(=O)Nc1cc2c(Nc3ccc(OCc4ccccn4)c(Cl)c3)ncnc2cc1OCCN1CCOCC1 = 0.02 to 0.03 µM
3) CC#CC(=O)Nc1cc2c(Nc3cc(Cl)c(OCc4cccc(F)c4)cc3F)ncnc2cc1OCCCN1CC(OC)C1 = 0.1 to 0.2 µM

Tell me the measured IC50 of C=CC(=O)Nc1cc2c(Nc3ccc(OCc4ccccn4)c(Cl)c3)ncnc2cc1N1CC(N(C)C)C1 , please.
0.2 to 0.3 µM

Tell me the measured IC50 of CC#CC(=O)Nc1cc2c(Nc3ccc(OCc4ccccn4)c(Cl)c3)ncnc2cc1OCCN1CCN(C)CC1 , please.
0.01 to 0.02 µM

Tell me the measured IC50 of C=CC(=O)Nc1cc2c(Nc3ccc(OCc4ccnc(C)c4)c(Cl)c3)ncnc2cc1OCCN1CCOCC1 , please.
0.1 to 0.2 µM
